test system: NCI-H727; assay: relative viability (nuclei count vs DMSO), 5 days (fraction); higher = more cells survive; details: first compound 0.04 µM
quantity-kind: relative viability

Check out these entries, answers already filled in.
The compound listed as Cc1sc2c(c1C)C(c1ccc(Cl)cc1)=N[C@@H](CC(=O)OC(C)(C)C)c1nnc(C)n1-2 [JQ1] + COc1cccc2cc(-c3nc([C@H]4CC[C@H](C(=O)O)CC4)n4ncnc(N)c34)[nH]c12 [OSI-027] (partner 0.5 µM) shows relative viability equal to 0.576

The compound listed as Cc1sc2c(c1C)C(c1ccc(Cl)cc1)=N[C@@H](CC(=O)OC(C)(C)C)c1nnc(C)n1-2 [JQ1] + CC1(C)CCC(c2ccc(Cl)cc2)=C(CN2CCN(c3ccc(C(=O)NS(=O)(=O)c4ccc(N[C@H](CCN5CCOCC5)CSc5ccccc5)c(S(=O)(=O)C(F)(F)F)c4)cc3)CC2)C1 [Navitoclax] (partner 0.5 µM) shows relative viability equal to 0.436

The compound listed as Cc1sc2c(c1C)C(c1ccc(Cl)cc1)=N[C@@H](CC(=O)OC(C)(C)C)c1nnc(C)n1-2 [JQ1] + N=C(N)NC(=N)NCCc1ccccc1 [Phenformin] (partner 250 µM) shows relative viability equal to 0.458

From here, focus on the item given below.
The compound listed as Cc1sc2c(c1C)C(c1ccc(Cl)cc1)=N[C@@H](CC(=O)OC(C)(C)C)c1nnc(C)n1-2 [JQ1] + O=C(CCCCCCC(=O)Nc1ccccc1)NO [Vorinostat] (partner 1 µM) shows relative viability equal to 1.47

###

system: NCI-H1793; assay: relative viability (nuclei count vs DMSO), 5 days (fraction); higher = more cells survive; details: first compound 0.05 µM
So basically, if relative viability comes in under 0.4 it's condition met, and if it's 0.4 or more it's condition not met.

Study these solved cases before continuing.
Just wondering, is relative viability of Nc1ccn([C@@H]2O[C@H](CO)[C@@H](O)[C@@H]2O)c(=O)n1 [Cytarabine] + CC(=O)c1c(C)c2cnc(Nc3ccc(N4CCNCC4)cn3)nc2n(C2CCCC2)c1=O [Palbociclib] (partner 0.5 µM) below 0.4?
condition met

Just wondering, is relative viability of Nc1ccn([C@@H]2O[C@H](CO)[C@@H](O)[C@@H]2O)c(=O)n1 [Cytarabine] + O=C(CCCCCCC(=O)Nc1ccccc1)NO [Vorinostat] (partner 1 µM) below 0.4?
condition not met

Just wondering, is relative viability of COc1cc2nccc(Oc3ccc(NC(=O)Nc4cc(C)on4)c(Cl)c3)c2cc1OC [Tivozanib] + COc1cccc2cc(-c3nc([C@H]4CC[C@H](C(=O)O)CC4)n4ncnc(N)c34)[nH]c12 [OSI-027] (partner 0.5 µM) below 0.4?
condition met

Further cases:
Just wondering, is relative viability of COc1cc2nccc(Oc3ccc(NC(=O)Nc4cc(C)on4)c(Cl)c3)c2cc1OC [Tivozanib] + C[C@]1(O)C[C@@H](c2nc(-c3ccc4ccc(-c5ccccc5)nc4c3)c3c(N)nccn32)C1 [Linsitinib] (partner 1 µM) below 0.4?
condition not met

Just wondering, is relative viability of COc1cc2nccc(Oc3ccc(NC(=O)Nc4cc(C)on4)c(Cl)c3)c2cc1OC [Tivozanib] + CCNC(=O)c1noc(-c2cc(C(C)C)c(O)cc2O)c1-c1ccc(CN2CCOCC2)cc1 [Luminespib] (partner 0.01 µM) below 0.4?
condition met

Just wondering, is relative viability of COc1cc2nccc(Oc3ccc(NC(=O)Nc4cc(C)on4)c(Cl)c3)c2cc1OC [Tivozanib] + CS(=O)(=O)N1CCN(Cc2cc3nc(-c4cccc5[nH]ncc45)nc(N4CCOCC4)c3s2)CC1 [Pictilisib] (partner 1 µM) below 0.4?
condition met
